Tested on: cytosolic PKC
test method notes: Inhibition of B16F1 cytosolic PKC activity
Format: biochemical, murine
cond: B16F1 cytosol fraction
pIC50: −log10 of the molar value.
Use 1.0 when the recorded pIC50 is no lower than 4; use 0.0 when it is lower.

[
  {
    "compound": "CN[C@@H]1C[C@H]2O[C@@](C)([C@@H]1OC)n1c3ccccc3c3c4c(c5c6ccccc6n2c5c31)C(=O)NC4 [Staurosporine, reference compound]",
    "qualitative label": 1.0
  },
  {
    "compound": "CC1CNCCN1S(=O)(=O)c1cccc2cnccc12 (stereo not drawn) [Compound H-7, reference compound]",
    "qualitative label": 0.0
  },
  {
    "compound": "CCCc1[nH]c(=O)oc1-c1ccnc2ccccc12",
    "qualitative label": 1.0
  },
  {
    "compound": "CCCc1[nH]c(=O)oc1-c1ccncc1",
    "qualitative label": 1.0
  },
  {
    "compound": "CCc1[nH]c(=O)oc1-c1ccnc2ccccc12",
    "qualitative label": 1.0
  },
  {
    "compound": "Cc1[nH]c(=O)oc1-c1ccncc1",
    "qualitative label": 0.0
  }
]

---

Tested on: B16F1 cells
test method notes: Experimental lung metastasis assay (B16F1 cells treated in culture, then injected intravenously into C57BL/6 mice)
Type: in vivo, murine (C57BL/6 mice)
cond: Mus musculus, B16-F1, iv, read-out: B16 Metastasis IC50

[
  {
    "molecule": "CC1CNCCN1S(=O)(=O)c1cccc2cnccc12 (stereo not shown) [Compound H-7, reference compound]",
    "result unit": "µM",
    "IC50": 12.5
  }
]

---

Tested on: B16F1 cells
test method notes: Experimental lung metastasis assay (B16F1 cells treated in culture, then injected intravenously into C57BL/6 mice)
Type: in vivo, murine (C57BL/6 mice)
cond: cells exposed to drugs for 24 hours; nodules counted three weeks later; read-out: B16 Metastasis IC50
measure name: IC50 (µM)

[
  {
    "molecule": "CCCc1[nH]c(=O)oc1-c1ccncc1 [Compound 1, 4-propyl-5(4-pyridinyl)-2(3H)-oxazolone]",
    "measure name": "IC50",
    "result unit": "µM",
    "value": 7
  }
]
